# target-desc: SH2 domain of human CRKL (human, UniProt P46109 14-102)
# Sequence (P46109 other isoform, or with tags, fused parts or gaps): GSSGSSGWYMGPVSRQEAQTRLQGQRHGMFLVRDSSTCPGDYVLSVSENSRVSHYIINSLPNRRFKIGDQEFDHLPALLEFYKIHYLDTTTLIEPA
# test: ITC
Non-standard residues stand in square brackets, D forms with d. No end group written: not given here. pY = N[C@@H](Cc1ccc(OP(=O)(O)O)cc1)C(=O)O
Listed binders paired with reported log10 Kd
Log10 applied to Kd; unit prior to transform: nM.

The examples below pair each entry with its known result.
>>> value_reported("AE[pY]QVPTS [Dok7 (Y396) peptide AE-pYQVP-TS]")
2.82
>>> value_reported("DE[pY]DTPRH [phosphotyrosyl peptide from M. musculus Bcar1 (p130Cas, Y238)]")
2.57
>>> value_reported("DV[pY]DVPPS [p130Cas (Bcar1) Y291 peptide DV-pYDVP-PS]")
3.03
>>> value_reported("SR[pY]QQPFE [PLCG1 Y1253 peptide SR-pYQQP-FE]")
3.99

Now for another entry.
log10 Kd reading for HH[pY]DTPRS [phosphotyrosyl peptide from M. musculus Dok7 (Y406)] : 2.04

This collection of values is drawn from paper PMC5043372.
